Cited source: paper PMC5736782

I'd appreciate it if you could supply Vmax values for the items below.
molecular target: UniProt:P06795; experiment: Gentest ABC transporter membrane ATPase assay; details: 0–300 μM, 30 min, 37°C
Sequence (P06795 whole entry): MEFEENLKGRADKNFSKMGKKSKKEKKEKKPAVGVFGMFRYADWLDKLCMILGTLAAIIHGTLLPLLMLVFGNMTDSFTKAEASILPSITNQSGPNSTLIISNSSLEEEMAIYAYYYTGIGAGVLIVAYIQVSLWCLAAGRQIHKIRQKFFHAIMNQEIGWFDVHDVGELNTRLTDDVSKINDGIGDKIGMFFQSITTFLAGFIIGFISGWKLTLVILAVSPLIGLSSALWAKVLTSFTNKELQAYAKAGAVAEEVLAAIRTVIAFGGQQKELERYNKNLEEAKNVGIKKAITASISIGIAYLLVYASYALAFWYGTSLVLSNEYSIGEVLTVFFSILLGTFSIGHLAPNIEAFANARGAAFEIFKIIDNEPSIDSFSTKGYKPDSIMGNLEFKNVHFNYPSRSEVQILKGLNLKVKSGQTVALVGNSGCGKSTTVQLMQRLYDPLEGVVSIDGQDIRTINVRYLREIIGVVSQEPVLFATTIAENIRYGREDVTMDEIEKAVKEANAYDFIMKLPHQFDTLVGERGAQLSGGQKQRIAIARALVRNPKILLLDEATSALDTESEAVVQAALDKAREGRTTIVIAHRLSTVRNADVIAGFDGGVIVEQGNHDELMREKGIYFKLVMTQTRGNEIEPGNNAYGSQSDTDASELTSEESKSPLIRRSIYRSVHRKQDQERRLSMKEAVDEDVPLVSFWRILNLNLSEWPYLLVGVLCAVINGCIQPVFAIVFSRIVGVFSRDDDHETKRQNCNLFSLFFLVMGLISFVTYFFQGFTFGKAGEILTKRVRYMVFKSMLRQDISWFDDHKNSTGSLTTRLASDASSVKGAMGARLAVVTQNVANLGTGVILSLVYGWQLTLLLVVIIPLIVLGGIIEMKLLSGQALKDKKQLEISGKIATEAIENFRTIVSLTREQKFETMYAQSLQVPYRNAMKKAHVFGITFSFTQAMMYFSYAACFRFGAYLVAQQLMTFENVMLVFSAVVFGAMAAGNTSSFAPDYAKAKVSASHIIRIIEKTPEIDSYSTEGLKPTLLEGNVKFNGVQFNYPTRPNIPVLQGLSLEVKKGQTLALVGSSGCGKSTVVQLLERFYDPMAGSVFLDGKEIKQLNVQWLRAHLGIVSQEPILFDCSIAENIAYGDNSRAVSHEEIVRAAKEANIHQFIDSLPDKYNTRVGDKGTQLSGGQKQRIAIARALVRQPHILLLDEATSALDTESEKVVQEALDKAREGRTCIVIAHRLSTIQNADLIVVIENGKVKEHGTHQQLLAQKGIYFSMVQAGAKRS
Numbers only, in µM/min.

Example results:
CC[C@H]1OC(=O)[C@H](C)[C@@H](O[C@H]2C[C@@](C)(OC)[C@@H](O)[C@H](C)O2)[C@H](C)[C@@H](O[C@@H]2O[C@H](C)C[C@H](N(C)C)[C@H]2O)[C@](C)(O)C[C@@H](C)C(=O)[C@H](C)[C@@H](O)[C@]1(C)O ... 48.5
CC(C)(C)NC(=O)[C@@H]1C[C@@H]2CCCC[C@@H]2CN1C[C@@H](O)[C@H](Cc1ccccc1)NC(=O)[C@H](CC(N)=O)NC(=O)c1ccc2ccccc2n1 ... 47.1

// moving on: another record for Vmax
Ask: # get_value(readout='Vmax', item= CCc1cc2c(cc1CC)CC(NC[C@H](O)c1ccc(O)c3[nH]c(=O)ccc13)C2 )
Result: 132
